system: Mycosphaerella graminicola; Anamorph: Septoria tritici; experiment: Leaf blotch of wheat (SEPTTR) fungicidal activity on wheat seedlings; format: in vivo; details: Zymoseptoria tritici, 24 h, 1 Day Protectant, read-out: Disease Control SEPTTR 1 DP
REPORTED ENDPOINT: pest or weed control at 100 ppm

Exam item: Any idea what pest or weed control at 100 ppm was measured for `COc1ccnc(C(=O)N[C@H]2COC[C@H](Cc3ccccc3)[C@@H](OC(=O)c3ccccc3)[C@H](C)OC2=O)c1O` ?
Marked response: 0 to 80%

Exam item: Which pest or weed control at 100 ppm is reported for this molecule? `COc1ccnc(C(=O)N[C@H]2COC[C@H](Cc3ccccc3)[C@@H](OCCCC(F)(F)F)[C@H](C)OC2=O)c1OCOC(C)=O`
Marked response: 80 to 100%

Exam item: Entry under review: `COc1ccnc(C(=O)N[C@H]2COC[C@H](Cc3ccccc3)[C@@H](OC3CCCCC3)[C@H](C)OC2=O)c1OCOC(C)=O` . Reported pest or weed control at 100 ppm?
Marked response: 80 to 100%

Exam item: Request the reported pest or weed control at 100 ppm associated with `CCCCCO[C@@H]1[C@@H](Cc2ccccc2)COC[C@H](NC(=O)c2nccc(OC)c2OCOC(C)=O)C(=O)O[C@H]1C`
Marked response: 80 to 100%

Exam item: Recorded pest or weed control at 100 ppm of `COc1ccnc(C(=O)N[C@H]2COC[C@H](Cc3ccccc3)[C@@H](Oc3ccccc3)[C@H](C)OC2=O)c1O` , please.
Marked response: 80 to 100%

Exam item: Which pest or weed control at 100 ppm is listed for `COc1ccnc(C(=O)N[C@H]2COC[C@H](Cc3ccccc3)[C@@H](OC3CCCCC3)[C@H](C)OC2=O)c1O` ?
Marked response: 0 to 80%

Exam item: Value lookup for pest or weed control at 100 ppm; key = `COCCCO[C@@H]1[C@@H](Cc2ccccc2)COC[C@H](NC(=O)c2nccc(OC)c2O)C(=O)O[C@H]1C`
Marked response: 80 to 100%

Exam item: # get_value(readout='pest or weed control at 100 ppm', item= `COc1ccnc(C(=O)N[C@H]2COC[C@H](Cc3ccccc3)[C@@H](OC(=O)C3CC3)[C@H](C)OC2=O)c1OCOC(C)=O` )
Marked response: 80 to 100%

Exam item: What pest or weed control at 100 ppm value was documented for this molecule, `COc1ccnc(C(=O)N[C@H]2COC[C@H](Cc3ccccc3)[C@@H](OCCC(=O)N(C)C)[C@H](C)OC2=O)c1O` ?
Marked response: 0 to 80%

Exam item: Fill in the blank: the reported pest or weed control at 100 ppm of `COc1ccnc(C(=O)N[C@H]2COC[C@H](Cc3ccccc3)[C@@H](OCC(C)C)[C@H](C)OC2=O)c1OCOC(=O)C(C)(C)C` is ____.
Marked response: 80 to 100%

Exam item: Consider the molecule shown here: `CCCO[C@@H]1[C@@H](Cc2ccccc2)COC[C@H](NC(=O)c2nccc(OC)c2OCOC(C)=O)C(=O)O[C@H]1C` What is its recorded pest or weed control at 100 ppm?
Marked response: 80 to 100%

Exam item: What pest or weed control at 100 ppm value was documented for this molecule, `COC(=O)/C=C/O[C@@H]1[C@@H](Cc2ccccc2)COC[C@H](NC(=O)c2nccc(OC)c2OCOC(C)=O)C(=O)O[C@H]1C` ?
Marked response: 80 to 100%

Exam item: I would be grateful if you could share the reported pest or weed control at 100 ppm for `COc1ccnc(C(=O)N[C@H]2COC[C@H](Cc3ccccc3)[C@@H](OCC(F)F)[C@H](C)OC2=O)c1OCOC(C)=O` .
Marked response: 80 to 100%

Exam item: Given `COc1ccnc(C(=O)N[C@H]2COC[C@H](Cc3ccccc3)[C@@H](OC3CCCC3)[C@H](C)OC2=O)c1O` , state its recorded pest or weed control at 100 ppm.
Marked response: 80 to 100%

Exam item: Which pest or weed control at 100 ppm value belongs to `COc1ccnc(C(=O)N[C@H]2COC[C@H](Cc3ccccc3)[C@@H](OCC(C)C)[C@H](C)OC2=O)c1OC(=O)OC(C)C` ?
Marked response: 80 to 100%

Exam item: State the recorded pest or weed control at 100 ppm for this entry: `COc1ccnc(C(=O)N[C@H]2COC[C@H](Cc3ccccc3)[C@@H](OCC(C)C)[C@H](C)OC2=O)c1OCOC(C)=O`
Marked response: 80 to 100%

Exam item: If you can, please state the reported pest or weed control at 100 ppm value of `COc1ccnc(C(=O)N[C@H]2COC[C@H](Cc3ccccc3)[C@@H](Oc3ccccc3)[C@H](C)OC2=O)c1OCOC(C)=O` .
Marked response: 80 to 100%

Exam item: Recorded pest or weed control at 100 ppm of CCCC(C)O[C@@H]1[C@@H](Cc2ccccc2)COC[C@H](NC(=O)c2nccc(OC)c2OCOC(C)=O)C(=O)O[C@H]1C (some centres unmarked) , please.
Marked response: 80 to 100%

Exam item: # get_value(readout='pest or weed control at 100 ppm', item= `COc1ccnc(C(=O)N[C@H]2COC[C@H](Cc3ccccc3)[C@@H](OC(=O)C(C)C)[C@H](C)OC2=O)c1O` )
Marked response: 80 to 100%

Exam item: Consider the molecule shown here: `COc1ccnc(C(=O)N[C@H]2COC[C@H](Cc3ccccc3)[C@@H](OC(=O)C3CC3)[C@H](C)OC2=O)c1O` What is its recorded pest or weed control at 100 ppm?
Marked response: 80 to 100%

Exam item: Can you share its pest or weed control at 100 ppm? I mean this molecule: `COc1ccnc(C(=O)N[C@H]2COC[C@H](Cc3ccccc3)[C@@H](OC3CCCC3)[C@H](C)OC2=O)c1OCOC(=O)C(C)C`
Marked response: 80 to 100%

Exam item: # pest or weed control at 100 ppm lookup, item `COc1ccnc(C(=O)N[C@H]2COC[C@H](Cc3ccccc3)[C@@H](OC(=O)c3ccccc3)[C@H](C)OC2=O)c1OCOC(C)=O`
Marked response: 80 to 100%

Exam item: Sample `COc1ccnc(C(=O)N[C@H]2COC[C@H](Cc3ccccc3)[C@@H](OC3CCCC3)[C@H](C)OC2=O)c1OCOC(C)=O` — what was its pest or weed control at 100 ppm?
Marked response: 80 to 100%

Exam item: // lookup pest or weed control at 100 ppm for `COCCCO[C@@H]1[C@@H](Cc2ccccc2)COC[C@H](NC(=O)c2nccc(OC)c2OCOC(C)=O)C(=O)O[C@H]1C`
Marked response: 80 to 100%

Exam item: Quick one: pest or weed control at 100 ppm for `COc1ccnc(C(=O)N[C@H]2COC[C@H](Cc3ccccc3)[C@@H](OC)[C@H](C)OC2=O)c1OCOC(C)=O` ?
Marked response: 80 to 100%

Exam item: Any idea what pest or weed control at 100 ppm was measured for COc1ccnc(C(=O)N[C@H]2COC[C@H](Cc3ccccc3)[C@@H](OCCC(C)OC)[C@H](C)OC2=O)c1O (some centres unmarked) ?
Marked response: 80 to 100%
